Data provenance is PubChem BioAssay (NCI).

- System: CAKI-1 renal
- Test name: NCI-60 one-dose screen, 48 h (100 = growth as untreated, 0 = no growth, -100 = all killed)
- Experimental conditions: 10 µM
About 83,000 compounds went through this panel and 20% of them were active in at least one assay; those are over-represented in the sample as a whole.
Observation type: growth (%)

>>> reading("CCC(O)c1ccc(Br)cc1NC(=O)c1cccc(Cl)c1 (stereo unspecified)")
7.99
>>> reading("COc1ccc(-n2nnc3c(sc4ccccc43)c2=O)cc1")
36.6
>>> reading("CCN(Cc1ccccc1)C1CCN(Cc2cc(Br)ccc2O)CC1")
44.7
>>> reading("Cc1nc2scc(-c3ccc(Cl)cc3)n2c(=O)c1CCN1CCOCC1")
84.6
>>> reading("c1ccc(COCC[P+](c2ccccc2)(c2ccccc2)c2ccccc2)cc1")
59.9
>>> reading("COc1ccc(-c2nc(SCC(=O)c3ccc(Br)cc3)[nH]c(=O)c2C#N)cc1")
99.9

###

- System: OVCAR-8 ovarian
- Test name: NCI-60 one-dose screen, 48 h (100 = growth as untreated, 0 = no growth, -100 = all killed)
- Experimental conditions: 10 µM
This is part of a sample that, as a whole, favours compounds with a hit. Of some 83,000 tested, about 20% had one in any assay.
Observation type: growth (%)

>>> reading("CCOC(=O)c1sc(NC(=O)c2cc(OC)c(OC)c(OC)c2)nc1C")
99.3
>>> reading("O=[N+]([O-])c1ccc2c(c1)Cc1cc(I)ccc1-2")
118
>>> reading("O=c1oc2c3ccc4cnccc4c3[nH]c2c2ccccc12")
24.3
>>> reading("COC(=O)C1(C(=O)OC)C2C(=O)C3C(C21)C3(C(=O)OC(C)(C)C)C(=O)OC(C)(C)C (stereo not given)")
104
>>> reading("O=C1/C(=C/c2ccc([N+](=O)[O-])s2)Oc2ccc(Cl)cc21")
1.27
>>> reading("O=C(NC1CCCC1)c1ccc(N2CCC(NCc3cccc(C(F)(F)F)c3)CC2)cc1")
95.2
>>> reading("COc1ccc(-c2nc3sc(-c4ccccc4)c(-c4ccccc4)n3c2/C=C/c2ccc(F)cc2)cc1")
85
>>> reading("CCc1ccc(-c2nnc(COc3ccc(-c4nc5ccc(C)cc5[nH]4)cc3OC)o2)cc1")
39.9
>>> reading("CC(C)(C)c1ccc(OCCCCCCN2CCNCC2)cc1")
89.7
>>> reading("CCNC(=S)NN")
71.1
>>> reading("O=C1CC[C@@H](C(=O)N[C@H]2CSSC[C@@H](C(=O)N/C=C/c3ccc(O)cc3)NC(=O)[C@H](Cc3ccccc3)NC(=O)[C@@H]3CCCN3C(=O)[C@@H]3CCCN3C2=O)N1")
100
>>> reading("COc1ccc(C2C=C(c3ccc(Cl)c(Cl)c3)N=C3SC(C)=CN32)cc1 (stereo not given)")
94
>>> reading("O=C(CCc1ccccc1)N1CCN(C(=O)CCc2ccccc2)CC1")
96
>>> reading("COc1cc(C2C(C#N)=C(c3c[nH]c4ccccc34)Nc3nc(N)[nH]c(=O)c32)cc(OC)c1OC (stereo not given)")
99.1
>>> reading("Cc1ccc(-c2cc(-c3cccc(Nc4ccnc5cc(Cl)ccc45)c3)nc3nc(N)[nH]c(=O)c23)cc1")
92.5
>>> reading("Nc1c(C(=O)Nc2ccccc2F)sc2nc3c(cc12)C(=O)CCC3")
58.6
>>> reading("O=C1CC[C@@H](C(=O)N[C@H]2CSSC[C@@H](C(=O)NCCc3ccccc3)NC(=O)[C@H](Cc3ccccc3)NC(=O)[C@@H]3CCCN3C(=O)[C@@H]3CCCN3C2=O)N1")
104
>>> reading("CCOC(=O)Nc1ccc2c(c1)C(=O)N(CC)c1ccccc1O2")
7.22
>>> reading("O=C(N/N=C\\c1cc(Cl)ccc1O)c1ccncc1")
44.5
>>> reading("COc1ccc(-c2nsc3c2NC(=O)CC3c2ccc(Cl)cc2)cc1 (stereo not given)")
90.2
>>> reading("CCCN(CCC)CCCNC(=O)c1cc2c(-c3ccc(OC)c(OC)c3)nn(C)c2s1")
4.29
>>> reading("C=CCNCCCN1C(=O)c2ccc3c4c(ccc(c24)C1=O)C(=O)N(CCCNCC=C)C3=O")
-14.5
>>> reading("COc1cccc2c1O/C(=C\\c1ccc([N+](=O)[O-])s1)C2=O")
24.7
>>> reading("O=C(COc1ccc(Cl)cc1Cl)Oc1coc(CSc2nc3ccccc3s2)cc1=O")
21.3
>>> reading("COc1cc(NS(C)(=O)=O)ccc1Nc1c2ccc(Cl)cc2nc2c(OC)cccc12")
11.7
>>> reading("CC1(C)CCc2cc(-c3ccn(S(=O)(=O)c4ccc(Cl)cc4)n3)ccc2O1")
86.6
>>> reading("Cc1cc(C)c2c(Nc3ncnc4c3sc3nc(C)cc(C)c34)n[nH]c2n1")
97.8
>>> reading("C/C(=N\\NC(N)=S)C(C)(C)O")
55.3
>>> reading("COc1cc(OC)cc(-c2ccc(-c3ccc(C(=N)N)cn3)o2)c1")
9.75
>>> reading("NC1CCC(Nc2nc(NCc3ccc(-c4ccco4)nc3)c3ncn(C4CCCC4)c3n2)CC1 (stereo not given)")
11.8
>>> reading("COc1cc(-c2cc(/C=C/C(C)=O)[nH]n2)cc(OC)c1OC")
73.5
>>> reading("Cc1cnc(C=O)c2cccc([N+](=O)[O-])c12")
87.3
>>> reading("Cc1nc2cc(-n3c(-c4ccc(F)cc4)nc4ccccc4c3=O)ccc2n1Cc1ccccc1")
13
>>> reading("O=[N+]([O-])c1cc2ncccc2c2ncccc12")
63.3
>>> reading("O=C(COc1ccc(-c2nc3ccccc3[nH]2)cc1)N=Nc1c(O)[nH]c2ccccc12")
78.4
>>> reading("COc1cccc2c1C(=O)c1c(O)c3c(c(O)c1C2=O)C[C@@](O)(C(=O)COC(=O)c1ccccc1)C[C@@H]3OC1CC(N)C(O)C(C)O1 (stereo not given in full)")
-77.3
>>> reading("COc1ccc(OC)c([N+](=O)[O-])c1C=O")
97.8
>>> reading("COc1ccc(-c2nnc(COc3ccc(NC(=O)Nc4ccccc4)cc3F)o2)cc1")
96.1
>>> reading("Nc1ccccc1NC(=O)CCCCCCC(=O)Nc1ccc2c(c1)/C(=C/c1ccc[nH]1)C(=O)N2")
26.2
>>> reading("CCCc1ccnc(NS(=O)(=O)c2ccc(N)cc2)n1")
75.2

###

- Tested on: UO-31 renal
- Test name: NCI-60 one-dose screen, 48 h
- Experimental conditions: 10 µM
Compounds without any hit were thinned out: in the full panel of roughly 83,000, 20% have a hit. Calls of active or inactive are those of the source. How the source made its calls: active means growth percent below 10; inactive means the rest.
Possible outcomes: true (active), false (inactive)

>>> category("N=C(N)c1ccc(-c2ccc(-c3cccs3)s2)nc1")
"true"
>>> category("COc1ccc(CCc2nc3cc(-c4c(C)noc4C)ccc3n2CCN2CCOCC2)cc1")
"true"
>>> category("NC(=O)C12C(=O)NC(=O)C1(C(=O)O)C21CCCC1 (stereo unspecified)")
"false"
>>> category("NC1CCC(Nc2nc(NCc3ccc(-c4ccco4)nc3)c3ncn(C4CCCC4)c3n2)CC1 (stereo unspecified)")
"false"
>>> category("CC(C)OCc1cc(CN2CCN(c3cccc(Cl)c3)CC2)c(O)c2ncccc12")
"true"
>>> category("CC(C)/C(=N/O)c1ccccc1")
"false"
>>> category("CCN(Cc1ccccc1)C1CCN(Cc2cc(Br)ccc2O)CC1")
"false"
>>> category("COc1cccc(-c2nnc(COc3ccc(-c4nc5ccccc5[nH]4)cc3OC)o2)c1")
"false"
>>> category("Nc1ccc(Sc2ccc3c4c2cccc4c(=O)n2c4ccccc4nc32)cc1")
"true"
>>> category("Cn1c([N+](=O)[O-])cnc1/C=C1\\Oc2ccc(Br)cc2C1=O")
"true"
>>> category("COc1ccc(NC(=O)c2sc3nc4c(cc3c2N)C(O)CCC4)cc1 (stereo unspecified)")
"false"
>>> category("CC(C)c1[nH]nc2c(NCc3ccc(-c4ccccn4)cc3)nc(SCCN)nc12")
"true"
>>> category("C[C@@H]1C(=O)N(C[C@H](Cc2ccccc2)NC(=O)OCc2ccccc2)[C@]1(Cc1ccccc1)C(=O)OCc1ccccc1")
"false"
>>> category("CCc1ccc(Nc2cc(C)nc3nc(C)nn23)cc1")
"false"
>>> category("O=C(Nc1cccc([N+](=O)[O-])c1)NN1CCCCCC1")
"false"
>>> category("COc1ccc(-c2cn[nH]c2-c2cc(OC)c(OC)c(OC)c2)cc1")
"false"
>>> category("C=CCN1C(=O)/C(=C\\c2ccc3c(c2)CCC3)SC1=S")
"false"
>>> category("CCNC1(NC#N)CCCCC1")
"false"
>>> category("O=c1oc2cc(OS(=O)(=O)C3CC3)ccc2c2c1CCCCCC2")
"false"
>>> category("O=S(=O)(NC1c2ccccc2Oc2ccccc21)c1ccccc1")
"false"
>>> category("O=NN(CCCl)C(=O)NCc1ccc(-c2ccc(CNC(=O)N(CCCl)N=O)cc2)cc1")
"false"
